# Measurement description: reduction of polyQ htt aggregates in cells – imaging, exon1htt(103Q)mCFP cells, high-content imaging, primary screen (AID 483);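 note: compound exposure lasted 3 days before fixation; percent of the per-plate median nuclei count of sample wells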
# Condition parameters: exon1htt(103Q)mCFP cell line, aggregate imaging, at 2 µM; measured here: cell count, toxicity
nuclei count by entry:
Measure: nuclei count (%)

[
  {
    "Compound": "O=C(c1ncc[nH]1)c1ccccc1C(=O)N1CCOCC1",
    "Measurement unit": "%",
    "Measured result": 111
  },
  {
    "Compound": "CCN(CC)S(=O)(=O)c1ccc2c(c1)c(=O)c(C(=O)NCCOC)cn2C",
    "Measurement unit": "%",
    "Measured result": 100
  },
  {
    "Compound": "COc1ccc(OC)c(Nc2nc(-c3cccs3)cs2)c1",
    "Measurement unit": "%",
    "Measured result": 104
  },
  {
    "Compound": "COCCn1nnnc1C(c1ccc(OC)cc1)N1CCN(c2ccccc2F)CC1 (stereo unspecified)",
    "Measurement unit": "%",
    "Measured result": 131
  },
  {
    "Compound": "CCc1ccccc1NC(=O)CSc1nc2n[nH]c(C)c2c(=N)n1-c1ccc(OC)cc1",
    "Measurement unit": "%",
    "Measured result": 104
  },
  {
    "Compound": "COCCNC(=O)CN(C)S(=O)(=O)c1ccc2c(c1)OCCO2",
    "Measurement unit": "%",
    "Measured result": 101
  }
]

---

# Measurement description: inhibitors of TNFa-induced NFkB p65 translocation, primary screen, imaging, HUVEC, MLSMR starter and 10KST1 sets (AID 438);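 note: compound added about 3h40 before a 20 min TNFalpha stimulation; signal is the nuclear over cytoplasmic p65 intensity ratio per well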
# Condition parameters: HUVEC TNFa-induced p65 nuclear translocation; at 2 µM, stronger effect = higher value, 0% TNFa-plus-vehicle, 100% no-TNFa wells
Consider the following molecules and their measured inhibition readings.

[
  {
    "Molecule": "O=S1(=O)CCN2C(=N1)SC1=C2CCN(Cc2ccccc2)C1",
    "Measurement unit": "%",
    "inhibition": -3
  },
  {
    "Molecule": "COC(=O)C1=C(C)Nc2ncnn2C1c1ccco1 (stereo unspecified)",
    "Measurement unit": "%",
    "inhibition": -4.2
  },
  {
    "Molecule": "CCCCN(CCCC)CCCNC(=O)CC1Oc2ccc(C)cc2NC1=O (stereo unspecified)",
    "Measurement unit": "%",
    "inhibition": -18.4
  },
  {
    "Molecule": "CCCN1CCN(CCCNC(=O)Cn2nc(-c3ccc(Cl)cc3)ccc2=O)CC1",
    "Measurement unit": "%",
    "inhibition": 13.6
  },
  {
    "Molecule": "CCCN(CCC)c1nc2ccccc2n2c(C)nnc12",
    "Measurement unit": "%",
    "inhibition": 6.5
  },
  {
    "Molecule": "CCNc1ccc2c(Cl)cc(=O)oc2c1",
    "Measurement unit": "%",
    "inhibition": -2.5
  },
  {
    "Molecule": "Cc1ccc(-c2nnc3c4ccccc4c(C)nn23)cc1S(=O)(=O)N1CCN(C)CC1",
    "Measurement unit": "%",
    "inhibition": 7.2
  },
  {
    "Molecule": "COc1ccc2cc(C#N)c(N3CCN(Cc4nnnn4CCC(C)C)CC3)nc2c1",
    "Measurement unit": "%",
    "inhibition": 7
  },
  {
    "Molecule": "COc1ccccc1-c1cc2nc(C)c(CCC(=O)NCc3ccco3)c(C)n2n1",
    "Measurement unit": "%",
    "inhibition": -7.7
  },
  {
    "Molecule": "COc1cc(CN2CCSCC2)cc(OC)c1OC",
    "Measurement unit": "%",
    "inhibition": -1.9
  },
  {
    "Molecule": "CCn1c(CCNC(=O)c2cccs2)nnc1SCC(=O)c1ccc(OC)cc1",
    "Measurement unit": "%",
    "inhibition": 0.8
  }
]
